Listing of recorded cell viability by entry.
- System: MOLM14
- PROCEDURE_TEXT: cell viability relative to vehicle control; higher = less cytotoxic;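 further: after 48 h exposure read by CellTiter-Glo luminescence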
- EXPERIMENTAL_CONTEXT: 10 µM; SRSF2 genotype: SRSF2 P95H/wt
Numbers only here, please. The scale is %.

Sample answers from the record:
{"COMPOUND": "O=C(O)C(=O)CBr [Bromopyruvic acid]", "cell viability [%]": 91.6}
{"COMPOUND": "C=C[C@]12CN(C)[C@@H]3[C@H]4CO[C@H](C[C@H]41)[C@]1(C(=O)Nc4ccccc41)[C@@H]32 [Gelsemine]", "cell viability [%]": 96}
{"COMPOUND": "CCC(COC(=O)c1cc(OC)c(OC)c(OC)c1)(c1ccccc1)N(C)C (stereo unspecified) [Trimebutine]", "cell viability [%]": 97.9}
{"COMPOUND": "CC[C@@]1(O)C(=O)OCc2c1cc1n(c2=O)Cc2cc3ccccc3nc2-1 [Camptothecin]", "cell viability [%]": 3.1}
{"COMPOUND": "O=C(CC1NCCCC1O)Cn1cnc2cc(Br)c(Cl)cc2c1=O (stereo unspecified) [Halofuginone]", "cell viability [%]": 0.77}
{"COMPOUND": "COC1=C[C@@H]2[C@@H]3Cc4ccc(OC)c(O)c4[C@]2(CCN3C)CC1=O [Sinomenine (Cucoline)]", "cell viability [%]": 89.9}
{"COMPOUND": "COc1ccc2c(c1)/C(=C/c1cnc[nH]1)C(=O)N2", "cell viability [%]": 22.1}
{"COMPOUND": "COc1cc(C)[nH]c(=O)c1CNC(=O)c1c(C)n([C@H](C)C2CCOCC2)c2ccccc12", "cell viability [%]": 103}

Query: Reported cell viability, compound Nc1nc(N)nc(N)n1 [Melamine] : ____
Response: 90.1

Query: Item: NC(=O)CN1CCCC1=O [Piracetam]
Response: 99.6

Query: Input O=c1cccc2n1C[C@@H]1CNC[C@H]2C1 [Cytisine]
Response: 97.7

====

Each record here notes measured cell viability.
- Tested on: MOLM14
- PROCEDURE_TEXT: cell viability relative to vehicle control; higher = less cytotoxic
- EXPERIMENTAL_CONTEXT: 10 µM; SRSF2 genotype: SRSF2 wt/wt

{"MOLECULE": "C[C@](O)(COc1ccc(C#N)cc1)C(=O)Nc1ccc(C#N)c(C(F)(F)F)c1", "RESULT": "96.7%"}
{"MOLECULE": "O=C(O[C@H]1C[N+]2(CCCOc3ccccc3)CCC1CC2)C(O)(c1cccs1)c1cccs1 [Aclidinium Bromide]", "RESULT": "106%"}
{"MOLECULE": "C[C@]12CCC(=O)C(O)=C1CC[C@@H]1[C@@H]2CC[C@]2(C)C(=O)CC[C@@H]12", "RESULT": "103%"}

Now look at this one.
Query: Look up cell viability for this molecule: CC(C)N(CCNC(=O)CN1CCCC1=O)C(C)C
Response: 102%

====

- Test system: MARIMO
- PROCEDURE_TEXT: cell viability relative to vehicle control; higher = less cytotoxic
- EXPERIMENTAL_CONTEXT: 10 µM; SRSF2 genotype: SRSF2 wt/wt
Where a name gives a salt, the structure may show the parent alone.
# cell viability per record follows
Supply the numeric figure in %, leaving out any unit text.

{"COMPOUND": "CN1CCN(c2nc3ccccc3nc2Cl)CC1", "ASSAY_TARGET": "MARIMO", "UNIT_TEXT": "%", "NUMERIC_RESULT": 103}
{"COMPOUND": "O=C(C[S+]([O-])C(c1ccccc1)c1ccccc1)NO (centres undefined)", "ASSAY_TARGET": "MARIMO", "UNIT_TEXT": "%", "NUMERIC_RESULT": 96.4}
{"COMPOUND": "Cc1cccc(Cc2c[nH]cn2)c1C [Detomidine HCl]", "ASSAY_TARGET": "MARIMO", "UNIT_TEXT": "%", "NUMERIC_RESULT": 95.3}
{"COMPOUND": "N#CC=C1C=CC(O)C(O)C1OC1OC(CO)C(O)C(O)C1O (centres undefined) [Lithospermoside]", "ASSAY_TARGET": "MARIMO", "UNIT_TEXT": "%", "NUMERIC_RESULT": 97.5}
{"COMPOUND": "COC1=C[C@]23CCCN2CCc2cc4c(cc2[C@@H]3[C@@H]1O)OCO4", "ASSAY_TARGET": "MARIMO", "UNIT_TEXT": "%", "NUMERIC_RESULT": 93.2}

Query: Item C[C@](O)(COc1ccc(C#N)cc1)C(=O)Nc1ccc(C#N)c(C(F)(F)F)c1 has what recorded cell viability?
Response: 94.2

Query: Query O=C(O[C@H]1C[N+]2(CCCOc3ccccc3)CCC1CC2)C(O)(c1cccs1)c1cccs1 [Aclidinium Bromide] next
Response: 111

Query: Entry CN1CC=C(c2ccccc2)CC1 [MPTP hydrochloride] please
Response: 111

Query: Please do the same for CCC(COC(=O)c1cc(OC)c(OC)c(OC)c1)(c1ccccc1)N(C)C (centres undefined) [Trimebutine maleate] as well.
Response: 90.3

====

- System: K562
- PROCEDURE_TEXT: cell viability relative to vehicle control; higher = less cytotoxic
- EXPERIMENTAL_CONTEXT: 10 µM; SRSF2 genotype: SRSF2 wt/wt
Where a name gives a salt, the structure may show the parent alone.
Form field: cell viability (one value per entry).
Write the number in % without appending the unit.

Look over these answered cases.
{"COMPOUND": "CC(=O)OC12COC1CC(O)C1(C)C(=O)C(O)C3=C(C)C(O)CC(O)(C(OC(=O)c4ccccc4)C21)C3(C)C (centres undefined) [10-DAB (10-Deacetylbaccatin)]", "NUMERIC_RESULT": 103}
{"COMPOUND": "O=C(CBr)N1CC([N+](=O)[O-])([N+](=O)[O-])C1", "NUMERIC_RESULT": 81.4}
{"COMPOUND": "COc1cc(OC)c(OC)cc1C=O [Asaraldehyde (Asaronaldehyde)]", "NUMERIC_RESULT": 106}
{"COMPOUND": "CCCCCCC(=O)O[C@H]1CC[C@H]2[C@@H]3CCC4=CC(=O)CC[C@]4(C)[C@H]3CC[C@]12C [Testosterone Enanthate]", "NUMERIC_RESULT": 88.5}

Query: Checklist item: cell viability tested on K562, entry C=C1[C@H]2C[C@@]3([C@@H]1O)[C@@H](CC2=O)[C@]12[C@@H]4C[C@H]3[C@H]1N(CC)C[C@]4(C)CC[C@@H]2O [Songorine] , value?
Response: 101

Query: Now this one: C=C1CCC2C(/C=C(\C)C(=O)C3(OC(C)=O)CC(C)C(OC(=O)c4ccccc4)C3C1OC(C)=O)C2(C)C (centres undefined) [Euphorbia factor L3]
Response: 59.5

Query: Another compound to check: CNCC(O)c1ccc(O)cc1 (centres undefined) [Synephrine HCl]
Response: 108

Query: Please give the result for Cc1cccc(C(C)c2c[nH]cn2)c1C (centres undefined) [Medetomidine HCl] too.
Response: 95.1

Query: Input NCCc1ccccc1 [2-Phenylethylamine hydrochloride]
Response: 104

====

- System: OCI-AML2
- PROCEDURE_TEXT: cell viability relative to vehicle control; higher = less cytotoxic
- EXPERIMENTAL_CONTEXT: 10 µM; SRSF2 genotype: wt/wt
Where a name gives a salt, the structure may show the parent alone.
MEASURED_ATTRIBUTE: cell viability (%)
Enter your answer as a number in %; do not include the unit.

Examples with their reported cell viability follow.
{"MOLECULE": "O=S(=O)(F)Cc1ccccc1 [PMSF (Phenylmethylsulfonyl Fluoride)]", "cell viability / %": 96.1}
{"MOLECULE": "COC1CC(OC2CCC3(C)C4CCC5(C)C(C6=CC(=O)OC6)CCC5(O)C4CCC3(O)C2)OC(C)C1OC1OC(CO)C(O)C(O)C1O (configuration not stated) [Periplocin]", "cell viability / %": 4.41}
{"MOLECULE": "O=[N+]([O-])c1ncc[nH]1 [Azomycin (2-Nitroimidazole)]", "cell viability / %": 96.8}

Query: For the molecule shown here, C[C@]12CCC(=O)C(O)=C1CC[C@@H]1[C@@H]2CC[C@]2(C)C(=O)CC[C@@H]12 [Formestane] , give the reported cell viability.
Response: 112

Query: Would you kindly repeat that for C[N+](C)(C)CCCCCCCCCC[N+](C)(C)C [Decamethonium Bromide] ?
Response: 102

Query: Also check C/C=C\c1cc(OC)c(OC)cc1OC [Beta-Asarone]
Response: 105

Query: // repeat for C[C@]12CC[C@H](O)C[C@@H]1CC[C@@H]1[C@@H]2CC[C@]2(C)C(=O)CC[C@@H]12 and report
Response: 97.3

Query: Quick one: C=C[C@@H]1C2=CCOC(=O)C2=CO[C@H]1O[C@@H]1O[C@H](CO)[C@@H](O)[C@H](O)[C@H]1O [Gentiopicroside]
Response: 108

Query: Please do the same for Nc1nc(N)nc(N)n1 [Melamine] as well.
Response: 97.8

Query: One more molecule: CC(C)N(CCC(C(N)=O)(c1ccccc1)c1ccccn1)C(C)C (configuration not stated) [disopyramide phosphate]
Response: 96.2

Query: Do the same for NC(=O)CN1CC(c2ccccc2)CC1=O (configuration not stated) [Phenylpiracetam] please
Response: 103

Query: Please do the same for OC(c1ccccc1)(c1ccccc1)C1CCNCC1 [Azacyclonol] as well.
Response: 94.5

Query: Likewise for CCN(Cc1ccc(Cl)nc1)/C(=C/[N+](=O)[O-])NC [Nitenpyram] ?
Response: 99.8

Query: Field entry: COc1ccc2c(c1)[nH]c1c(C)nccc12 [Harmine hydrochloride]
Response: 49.9

Query: Thanks! And C[C@@H]1CC[C@H]2[C@@H](C)C(=O)O[C@@H]3O[C@@]4(C)CC[C@@H]1[C@]32OO4 [Artemisinin] ?
Response: 98.2

Query: Follow-up item: C[C@@H]1O[C@@H](O[C@H]2C[C@@H](O)[C@]3(CO)[C@H]4[C@H](O)C[C@]5(C)[C@@H](C6=CC(=O)OC6)CC[C@]5(O)[C@@H]4CC[C@]3(O)C2)[C@H](O)[C@H](O)[C@H]1O [Ouabain]
Response: 2.79

Query: What about O=C(O)C(=O)c1cn(Cc2ccccc2)c2ccc(-c3ccc(OC(F)(F)F)cc3)cc12 [Tiplaxtinin (PAI-039)] ?
Response: 103
